Values were extracted from ChEMBL document CHEMBL1128238.

Species on record: Rattus norvegicus
Test: Ability to inhibit after-hyperpolarization (AHP) in cultured rat sympathetic neurons. (number of neurons tested, n=4).
Format: functional
Details: Sympathetic neuron
propertyName: IC50 (µM)
Kindly answer with a numeric value in µM, unit omitted.

- molSmiles: "C[n+]1c(CCCCCCCCCCCCc2ccc3ccccc3[n+]2C)ccc2ccccc21"
  IC50 [µM]: 21

Supply IC50 value. Item: `Cn1c[n+](CCCCCCCCCC[n+]2cn(C)c3ccccc32)c2ccccc21`
16
